Target: mu opioid receptor (MOR) (Homo sapiens)
Experiment: PathHunter β-arrestin recruitment assay, PAM mode with EC20 endomorphin-1
Type: cell-based
Conditions: β-arrestin recruitment; read-out: β-arr. EC50
pEC50: −log10 of the molar value.
Recorded measurements of pEC50, one per entry
TEST_READOUT: pEC50

[
  {
    "COMPOUND": "COc1ccc(C2CCCCN2S(=O)(=O)c2ccc(Cl)cc2)cc1Br (single isomer, unassigned) [compound 5]",
    "DATA_VALUE": "< 5.68"
  },
  {
    "COMPOUND": "CC1CCN(S(=O)(=O)c2ccc(Cl)cc2)C1c1ccc(F)c(F)c1 (mixture of isomers)",
    "DATA_VALUE": "5.68 to 6.15"
  },
  {
    "COMPOUND": "COc1ccc(C2CCCCN2c2nc(Cl)ncc2OC)cc1Br (centres unmarked)",
    "DATA_VALUE": "< 5.68"
  },
  {
    "COMPOUND": "O=C1CCN(c2nc(Cl)ncc2F)C(c2ccc(F)c(Br)c2)C1 (centres unmarked)",
    "DATA_VALUE": "< 5.68"
  },
  {
    "COMPOUND": "Fc1cnc(Cl)nc1N1CCCCC1c1cccnc1 (centres unmarked)",
    "DATA_VALUE": "> 6.15"
  }
]

---

Target: UniProtKB P35372
Assay: Hit Hunter cAMP signaling assay (adenylyl cyclase inhibition), PAM mode with EC20 endomorphin-1
Format: cell-based
Details: adenylyl cyclase inhibition; read-out: cAMP EC50
pEC50: −log10 of the molar value.
TEST_READOUT: pEC50

[
  {
    "COMPOUND": "CC1CCN(S(=O)(=O)c2ccc(Cl)cc2)C1c1ccc(Cl)cc1 (mixture of isomers)",
    "DATA_VALUE": "< 5.68"
  },
  {
    "COMPOUND": "O=S(=O)(c1ccc(Cl)cc1)N1CCCCC1c1ccc2c(c1)CCO2 (racemic)",
    "DATA_VALUE": "< 5.68"
  },
  {
    "COMPOUND": "COc1ccc(C2CCCCN2S(=O)(=O)c2ccc(Cl)cc2)cc1C (racemic)",
    "DATA_VALUE": "5.68 to 6.15"
  },
  {
    "COMPOUND": "COc1ccc(C2COCCN2S(=O)(=O)c2ccc(Cl)cc2)cc1Br (racemic)",
    "DATA_VALUE": "5.68 to 6.15"
  },
  {
    "COMPOUND": "FC(F)(F)c1cccc(C2CCCCN2c2ccc(Cl)cc2)n1 (stereo not shown)",
    "DATA_VALUE": "< 5.68"
  },
  {
    "COMPOUND": "O=S(=O)(c1ccc(Cl)cc1)N1CCCCC1c1ccc(Cl)c(C(F)(F)F)c1 (racemic) [compound 64]",
    "DATA_VALUE": "5.68 to 6.15"
  },
  {
    "COMPOUND": "O=S1(=O)CCN(c2nc(Cl)ncc2F)C(c2cc(F)cc(C(F)(F)F)c2)C1 (racemic)",
    "DATA_VALUE": "< 5.68"
  },
  {
    "COMPOUND": "Fc1ccc(Cl)nc1N1CCCCC1c1cncc(Cl)n1 (stereo not shown)",
    "DATA_VALUE": "> 6.15"
  },
  {
    "COMPOUND": "Cc1cc(C2CCCCN2S(=O)(=O)c2ccc(Cl)cc2)ccc1F (racemic)",
    "DATA_VALUE": "5.68 to 6.15"
  },
  {
    "COMPOUND": "CN1CCN(c2nc(Cl)ncc2F)C(c2cccc(C(F)(F)F)c2)C1 (racemic)",
    "DATA_VALUE": "5.68 to 6.15"
  },
  {
    "COMPOUND": "CC1CCN(S(=O)(=O)c2ccc(Cl)cc2)C1c1cccc(C(F)(F)F)c1 (mixture of isomers)",
    "DATA_VALUE": "< 5.68"
  },
  {
    "COMPOUND": "C#Cc1ccccc1N1CCCCC1c1ccc(F)c(Cl)c1 (stereo not shown)",
    "DATA_VALUE": "< 5.68"
  },
  {
    "COMPOUND": "CC1CCN(S(=O)(=O)c2ccc(Cl)cc2)C1c1ccc(F)c(C(F)(F)F)c1 (mixture of isomers)",
    "DATA_VALUE": "< 5.68"
  },
  {
    "COMPOUND": "O[C@H]1CC[C@H](c2cc(F)cc(C(F)(F)F)c2)N(c2nc(Cl)ncc2F)C1 (relative stereo)",
    "DATA_VALUE": "5.68 to 6.15"
  },
  {
    "COMPOUND": "COc1ccc(C2N(S(=O)(=O)c3ccc(Cl)cc3)CCC2(F)F)cc1Br (single isomer, unassigned) [Compound 110]",
    "DATA_VALUE": "< 5.68"
  },
  {
    "COMPOUND": "CC1CCN(S(=O)(=O)c2ccc(Cl)cc2)C1c1ccc(Cl)c(C(F)(F)F)c1 (mixture of isomers)",
    "DATA_VALUE": "< 5.68"
  }
]

---

Target: mu opioid receptor (MOR) (Homo sapiens, UniProt P35372)
Sequence (P35372 whole entry): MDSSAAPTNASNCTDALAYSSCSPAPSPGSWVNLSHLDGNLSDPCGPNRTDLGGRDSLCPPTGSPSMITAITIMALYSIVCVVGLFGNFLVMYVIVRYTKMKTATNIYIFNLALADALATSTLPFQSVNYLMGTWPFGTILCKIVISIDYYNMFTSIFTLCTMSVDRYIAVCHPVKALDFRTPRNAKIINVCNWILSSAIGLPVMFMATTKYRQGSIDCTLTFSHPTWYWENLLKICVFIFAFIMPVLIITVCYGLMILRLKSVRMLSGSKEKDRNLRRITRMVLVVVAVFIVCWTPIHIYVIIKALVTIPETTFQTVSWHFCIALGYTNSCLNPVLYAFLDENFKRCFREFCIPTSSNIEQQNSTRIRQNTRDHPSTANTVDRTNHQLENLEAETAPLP
Experiment: PathHunter β-arrestin recruitment assay, PAM mode with EC20 endomorphin-1
Type: cell-based
Settings: β-arrestin recruitment; read-out: β-arr. EC50
Recorded measurements of EC50, one per entry

[
  {
    "MOLECULE": "O=S(=O)(c1ccc(Cl)cc1F)N1CCCC(F)C1c1ccc(F)c(Br)c1 (stereo not shown) [Compound 37]",
    "ASSAYED_SYSTEM": "mu opioid receptor (MOR) (Homo sapiens, UniProt P35372)",
    "EC50": "> 2100 nM"
  },
  {
    "MOLECULE": "C#Cc1ccccc1N1CCCCC1c1ccc(F)c(Cl)c1 (stereo not shown) [compound 463]",
    "ASSAYED_SYSTEM": "mu opioid receptor (MOR) (Homo sapiens, UniProt P35372)",
    "EC50": "> 2100 nM"
  },
  {
    "MOLECULE": "Fc1cnc(Cl)nc1N1CCCCC1c1cncnc1 (stereo not shown) [compound 378]",
    "ASSAYED_SYSTEM": "mu opioid receptor (MOR) (Homo sapiens, UniProt P35372)",
    "EC50": "< 700 nM"
  },
  {
    "MOLECULE": "Fc1ccnc(C2CCCCN2c2nc(Cl)ncc2F)c1 (stereo not shown) [compound 412]",
    "ASSAYED_SYSTEM": "mu opioid receptor (MOR) (Homo sapiens, UniProt P35372)",
    "EC50": "< 700 nM"
  },
  {
    "MOLECULE": "Cc1noc(C2CCCCN2c2nc(Cl)ncc2F)n1 (stereo not shown) [compound 358]",
    "ASSAYED_SYSTEM": "mu opioid receptor (MOR) (Homo sapiens, UniProt P35372)",
    "EC50": "< 700 nM"
  },
  {
    "MOLECULE": "Fc1cccc(C2CCCCN2c2nccc(Cl)n2)n1 (stereo not shown) [compound 260]",
    "ASSAYED_SYSTEM": "mu opioid receptor (MOR) (Homo sapiens, UniProt P35372)",
    "EC50": "> 2100 nM"
  },
  {
    "MOLECULE": "Fc1cnc(Cl)nc1C1CCCCN1c1nc(Cl)ncc1F (stereo not shown) [compound 357]",
    "ASSAYED_SYSTEM": "mu opioid receptor (MOR) (Homo sapiens, UniProt P35372)",
    "EC50": "< 700 nM"
  },
  {
    "MOLECULE": "Fc1cnc(Cl)nc1N1CCCCC1c1cc(F)c(F)c(F)c1 (stereo not shown) [compound 327]",
    "ASSAYED_SYSTEM": "mu opioid receptor (MOR) (Homo sapiens, UniProt P35372)",
    "EC50": "< 700 nM"
  },
  {
    "MOLECULE": "COc1cccc(N2CCCCC2c2ccc(F)c(Cl)c2)c1 (stereo not shown) [compound 465]",
    "ASSAYED_SYSTEM": "mu opioid receptor (MOR) (Homo sapiens, UniProt P35372)",
    "EC50": "> 2100 nM"
  },
  {
    "MOLECULE": "OC1CCC(c2cc(F)cc(C(F)(F)F)c2)N(c2nc(Cl)ncc2F)C1 (stereo not shown) [compound 311]",
    "ASSAYED_SYSTEM": "mu opioid receptor (MOR) (Homo sapiens, UniProt P35372)",
    "EC50": "> 2100 nM"
  },
  {
    "MOLECULE": "COc1ccc(C2CCCN2S(=O)(=O)c2ccc(Cl)cc2)cc1Br (stereo not shown) [compound 41]",
    "ASSAYED_SYSTEM": "mu opioid receptor (MOR) (Homo sapiens, UniProt P35372)",
    "EC50": "> 2100 nM"
  },
  {
    "MOLECULE": "Fc1cnc(Cl)nc1N1CCCCC1c1cc(Cl)cnc1F (stereo not shown) [compound 390]",
    "ASSAYED_SYSTEM": "mu opioid receptor (MOR) (Homo sapiens, UniProt P35372)",
    "EC50": "< 700 nM"
  },
  {
    "MOLECULE": "Fc1cc(C2COCCN2c2nc(Cl)ncc2F)cc(C(F)(F)F)c1 (racemic) [Compound 190]",
    "ASSAYED_SYSTEM": "mu opioid receptor (MOR) (Homo sapiens, UniProt P35372)",
    "EC50": "700 to 2100 nM"
  },
  {
    "MOLECULE": "COc1ccc(C2C(C)CCN2S(=O)(=O)c2ccc(Cl)cc2)cc1Br (mixture of isomers) [Compound 102]",
    "ASSAYED_SYSTEM": "mu opioid receptor (MOR) (Homo sapiens, UniProt P35372)",
    "EC50": "> 2100 nM"
  },
  {
    "MOLECULE": "O=S(=O)(c1ccc(Cl)cc1)N1CCCCC1c1ccc(OC(F)(F)F)c(Br)c1 (stereo not shown) [compound 43]",
    "ASSAYED_SYSTEM": "mu opioid receptor (MOR) (Homo sapiens, UniProt P35372)",
    "EC50": "700 to 2100 nM"
  },
  {
    "MOLECULE": "COc1ccc(N2CCCCC2c2cccc(C(F)(F)F)n2)cc1 (stereo not shown) [compound 474]",
    "ASSAYED_SYSTEM": "mu opioid receptor (MOR) (Homo sapiens, UniProt P35372)",
    "EC50": "> 2100 nM"
  },
  {
    "MOLECULE": "FC(F)(F)c1cccc(C2CCCCN2c2ccnc(Cl)n2)n1 (stereo not shown) [compound 469]",
    "ASSAYED_SYSTEM": "mu opioid receptor (MOR) (Homo sapiens, UniProt P35372)",
    "EC50": "> 2100 nM"
  },
  {
    "MOLECULE": "Cc1c(C2CCCCN2c2nc(Cl)ncc2F)cccc1C(F)(F)F (stereo not shown) [compound 135]",
    "ASSAYED_SYSTEM": "mu opioid receptor (MOR) (Homo sapiens, UniProt P35372)",
    "EC50": "700 to 2100 nM"
  },
  {
    "MOLECULE": "Fc1cnc(Cl)nc1N1CCCCC1c1ccc(Cl)c(Br)c1 (single isomer, unassigned) [compound 125]",
    "ASSAYED_SYSTEM": "mu opioid receptor (MOR) (Homo sapiens, UniProt P35372)",
    "EC50": "< 700 nM"
  }
]
